Reference source: paper PMC10215302

System: S. aureus SA0085
Experiment: microbe, parasite or virus in culture
Conditions: Staphylococcus aureus, SA0085, read-out: MIC values
Please note: MIC exactly at 8 µg/mL is label 0. Only values below 8 µg/mL get label 1.

compound | testedTarget | classAssignment
Cn1nnc(-c2ccc(-c3ccc(N4C[C@H](CO)OC4=O)cc3F)cn2)n1 [Tedizolid] | S. aureus SA0085 | label 1

**Q:** Does this compound meet the criterion MIC < 8 µg/mL? CC(=O)O[C@H]1C[C@@]2(C)[C@@H](C[C@@H](O)[C@H]3[C@@]4(C)CC[C@@H](O)[C@@H](C)[C@@H]4CC[C@@]32C)/C1=C(\CCC=C(C)C)C(=O)O [Fusidic acid]
**A:** label 1

**Q:** Does this compound meet the criterion MIC < 8 µg/mL? CCC[C@@H]1C[C@@H](C(=O)N[C@@H]([C@H]2O[C@H](SC)[C@H](O)[C@@H](O)[C@H]2O)[C@H](C)Cl)N(C)C1 [Clindamycin]
**A:** label 0

**Q:** Does this compound meet the criterion MIC < 8 µg/mL? CCO/N=C(\C(=O)N[C@@H]1C(=O)N2C(C(=O)[O-])=C(Sc3nc(-c4cc[n+](C)cc4)cs3)CS[C@H]12)c1nsc(N)n1 [Ceftaroline]
**A:** label 1

**Q:** Does this compound meet the criterion MIC < 8 µg/mL? CO[C@@]1(NC(=O)Cc2cccs2)C(=O)N2C(C(=O)O)=C(COC(N)=O)CS[C@@H]21 [Cefoxitin]
**A:** label 0

**Q:** Does this compound meet the criterion MIC < 8 µg/mL? Cc1onc(-c2ccccc2)c1C(=O)N[C@@H]1C(=O)N2[C@@H]1SC(C)(C)[C@@H]2C(=O)O [Oxacillin]
**A:** label 0

**Q:** Does this compound meet the criterion MIC < 8 µg/mL? CNC(C)C1CCC(N)C(OC2C(N)CC(N)C(OC3OCC(C)(O)C(NC)C3O)C2O)O1 (stereo not drawn) [Gentamicin]
**A:** label 0

###

Test system: S. aureus SA0422
Assay: microbe, parasite or virus in culture
Conditions: Staphylococcus aureus, SA0422, read-out: MIC values
reportedProperty: MIC (µg/mL)
Answers are plain numbers, in µg/mL.

chemicalStructure | testedTarget | unitLabel | MIC
CC(=O)NC[C@H]1CN(c2ccc(N3CCOCC3)c(F)c2)C(=O)O1 | S. aureus SA0422 | µg/mL | 2

Batch request: MIC for each of the following compounds.
1. CO[C@@]1(NC(=O)Cc2cccs2)C(=O)N2C(C(=O)O)=C(COC(N)=O)CS[C@@H]21
2. CCO/N=C(\C(=O)N[C@@H]1C(=O)N2C(C(=O)[O-])=C(Sc3nc(-c4cc[n+](C)cc4)cs3)CS[C@H]12)c1nsc(N)n1

**A:**
256
2

###

System: S. aureus SA0085
Assay: microbe, parasite or virus in culture
Conditions: Staphylococcus aureus, SA0085, read-out: MIC values
Please note: MIC exactly at 1 µg/mL is not fulfilled. Only values below 1 µg/mL get fulfilled.

Example entries begin here.
chemicalStructure | testedTarget | classAssignment
CN(C)c1cc(NC(=O)CNC(C)(C)C)c(O)c2c1C[C@H]1C[C@H]3[C@H](N(C)C)C(O)=C(C(N)=O)C(=O)[C@@]3(O)C(O)=C1C2=O | S. aureus SA0085 | fulfilled
O=C(O)c1cn(C2CC2)c2cc(N3CCNCC3)c(F)cc2c1=O | S. aureus SA0085 | not fulfilled

**Q:** Does this molecule meet the criterion MIC < 1 µg/mL? CC[C@H]1OC(=O)[C@H](C)[C@@H](O[C@H]2C[C@@](C)(OC)[C@@H](O)[C@H](C)O2)[C@H](C)[C@@H](O[C@@H]2O[C@H](C)C[C@H](N(C)C)[C@H]2O)[C@](C)(O)C[C@@H](C)C(=O)[C@H](C)[C@@H](O)[C@]1(C)O
**A:** not fulfilled

**Q:** Does this molecule meet the criterion MIC < 1 µg/mL? CN(C)[C@@H]1C(O)=C(C(N)=O)C(=O)[C@@]2(O)C(O)=C3C(=O)c4c(O)cccc4[C@@](C)(O)[C@H]3C[C@@H]12
**A:** not fulfilled

**Q:** Does this molecule meet the criterion MIC < 1 µg/mL? CC(=O)NC[C@H]1CN(c2ccc(N3CCOCC3)c(F)c2)C(=O)O1
**A:** not fulfilled

###

Tested on: S. aureus SA0736
Experiment: microbe, parasite or virus in culture
Details: Staphylococcus aureus, SA0736, read-out: MIC values, Table S1: SA0736 DAP-Y (40 passages on daptomycin, yellow colonies)
reportedProperty: MIC
Kindly format the answer as number then unit.

Please review the entries below; each comes with its answer.
chemicalStructure | MIC
CCO/N=C(\C(=O)N[C@@H]1C(=O)N2C(C(=O)[O-])=C(Sc3nc(-c4cc[n+](C)cc4)cs3)CS[C@H]12)c1nsc(N)n1 | 0.5 µg/mL
CO[C@@]1(NC(=O)Cc2cccs2)C(=O)N2C(C(=O)O)=C(COC(N)=O)CS[C@@H]21 | 8 µg/mL
O=C(O)c1cn(C2CC2)c2cc(N3CCNCC3)c(F)cc2c1=O | 32 µg/mL

Next, consider the following compound.
Quick note, MIC for Cc1onc(-c2ccccc2)c1C(=O)N[C@@H]1C(=O)N2[C@@H]1SC(C)(C)[C@@H]2C(=O)O landed at 16 µg/mL

###

Tested on: S. aureus SA0736
Assay: microbe, parasite or virus in culture
Settings: Staphylococcus aureus, SA0736, read-out: MIC values
Please note: MIC exactly at 1 µg/mL is not fulfilled. Only values below 1 µg/mL get fulfilled.

compound | classAssignment
CO[C@@]1(NC(=O)Cc2cccs2)C(=O)N2C(C(=O)O)=C(COC(N)=O)CS[C@@H]21 | not fulfilled
CNC(C)C1CCC(N)C(OC2C(N)CC(N)C(OC3OCC(C)(O)C(NC)C3O)C2O)O1 (stereo not drawn) | not fulfilled
CO[C@H]1/C=C/O[C@@]2(C)Oc3c(C)c(O)c4c(O)c(c(/C=N/N5CCN(C)CC5)c(O)c4c3C2=O)NC(=O)/C(C)=C\C=C\[C@H](C)[C@H](O)[C@@H](C)[C@@H](O)[C@@H](C)[C@H](OC(C)=O)[C@@H]1C | fulfilled
COc1c(N2C[C@@H]3CCCN[C@@H]3C2)c(F)cc2c(=O)c(C(=O)O)cn(C3CC3)c12 | not fulfilled

Here is the next item to consider.
**Q:** Does this compound meet the criterion MIC < 1 µg/mL? CN(C)[C@@H]1C(O)=C(C(N)=O)C(=O)[C@@]2(O)C(O)=C3C(=O)c4c(O)cccc4[C@@](C)(O)[C@H]3C[C@@H]12
**A:** not fulfilled

###

Test system: S. aureus SA0736
Assay: microbe, parasite or virus in culture
Conditions: Staphylococcus aureus, SA0736, read-out: MIC values
reportedProperty: MIC (µg/mL)
Answers are plain numbers, in µg/mL.

chemicalStructure | valueReported
O=C(O)c1cn(C2CC2)c2cc(N3CCNCC3)c(F)cc2c1=O | 128
Cn1nnc(-c2ccc(-c3ccc(N4C[C@H](CO)OC4=O)cc3F)cn2)n1 | 0.125
CC(=O)O[C@H]1C[C@@]2(C)[C@@H](C[C@@H](O)[C@H]3[C@@]4(C)CC[C@@H](O)[C@@H](C)[C@@H]4CC[C@@]32C)/C1=C(\CCC=C(C)C)C(=O)O | 0.06
CC[C@H]1OC(=O)[C@H](C)[C@@H](O[C@H]2C[C@@](C)(OC)[C@@H](O)[C@H](C)O2)[C@H](C)[C@@H](O[C@@H]2O[C@H](C)C[C@H](N(C)C)[C@H]2O)[C@](C)(O)C[C@@H](C)C(=O)[C@H](C)[C@@H](O)[C@]1(C)O | 0.125
CN(C)c1cc(NC(=O)CNC(C)(C)C)c(O)c2c1C[C@H]1C[C@H]3[C@H](N(C)C)C(O)=C(C(N)=O)C(=O)[C@@]3(O)C(O)=C1C2=O | 0.06

Next, consider the following molecule.
Let me check: Cc1onc(-c2ccccc2)c1C(=O)N[C@@H]1C(=O)N2[C@@H]1SC(C)(C)[C@@H]2C(=O)O , system S. aureus SA0736, measured MIC is 64

###

System: S. aureus SA0422
Assay: microbe, parasite or virus in culture
Settings: Staphylococcus aureus, SA0422, read-out: MIC values
reportedProperty: MIC (µg/mL)
One number for each entry, in µg/mL.

chemicalStructure | testedTarget | valueReported
Cn1nnc(-c2ccc(-c3ccc(N4C[C@H](CO)OC4=O)cc3F)cn2)n1 | S. aureus SA0422 | 0.25

Batch request: MIC for each of the following compounds.
1. CC(=O)O[C@H]1C[C@@]2(C)[C@@H](C[C@@H](O)[C@H]3[C@@]4(C)CC[C@@H](O)[C@@H](C)[C@@H]4CC[C@@]32C)/C1=C(\CCC=C(C)C)C(=O)O
2. CN(C)c1cc(NC(=O)CNC(C)(C)C)c(O)c2c1C[C@H]1C[C@H]3[C@H](N(C)C)C(O)=C(C(N)=O)C(=O)[C@@]3(O)C(O)=C1C2=O

**A:**
1: 0.125; 2: 0.125
